pIC50: −log10 of the molar value.
Here's a batch of compounds along with measured pIC50 for PI3 Kinase γ (Homo sapiens).
Measured quantity: pIC50

compound="CCn1nnc2c(N3CCOCC3)nc(-c3ccc(NC(=O)Nc4ccc(NCc5ccc(F)nc5)cc4)cc3)nc21 [Example 254]" numeric_readout=8.12
compound="O=C(NCc1ccccc1)c1ccc(Cn2nnc3c(N4CCOCC4)nc(-c4cccc(O)c4)nc32)cc1 [Example 212]" numeric_readout=6.12
compound="CCCCN1CCN(CCn2nnc3c(N4CCOCC4)nc(-c4cccc(O)c4)nc32)CC1 [Example 107]" numeric_readout=5.60
compound="CCn1nnc2c(N3CCOCC3)nc(-c3ccc(NC(=O)Nc4ccc(C(=O)N5CCN[C@H](C)C5)cc4)cc3)nc21 [Example 54]" numeric_readout=8.15
compound="CC(C)n1nnc2c(N3CCOCC3)nc(-c3ccc(N)cc3)nc21 [Example 81]" numeric_readout=5.33
compound="Cn1nccc1CN1CCC(n2nnc3c(N4CCOCC4)nc(-c4cncc(O)c4)nc32)CC1 [Example 30]" numeric_readout=5.54
compound="COC(Cn1nnc2c(N3CCOCC3)nc(-c3ccc(NC(=O)Nc4cccnc4)cc3)nc21)OC [Example 181]" numeric_readout=6.73
compound="CC(C)(C)OC(=O)N1CC(n2nnc3c(N4CCOCC4)nc(-c4ccc(NC(=O)Nc5cccnc5)cc4)nc32)C1 [Example 130]" numeric_readout=6.78
